test-method-notes: MM1S cell viability effects, profiling panel, calcein-AM fluorescence, 48 h, basal (AID 1165);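 further: viability of MM1S multiple myeloma cells under basal unstimulated conditions; test concentration not given here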
assay-setup: higher = more signal
List of z-score values.
The reply should be a number, written without any unit.

CC(C)(C)N1C(=O)[C@H]2[C@H]3[C@H](O)[C@H](O)CC(=NOCc4ccccc4)[C@H]3CC[C@H]2C1=O | 0.166
CCOC(=O)[C@H](CC(C)C)NC(=O)CCC1CC(OC(=O)NCCc2ccc(F)cc2)CC2(CCCC(COC(=O)NCCc3ccc(Cl)cc3)O2)O1 (some centres undefined) | 0.73
O=C1CCCC(C2=CCCCC2=O)C1 (centres undefined) | 0.322

Here is another compound to look at.
Query (compound): `O=c1n(-c2ccccc2)c(=O)n2n1CC[C@@H]1C(=NOCc3ccccc3)[C@H]3O[C@H]3[C@@H](O)[C@@H]12` ; field requested: z-score
-0.232
